Value source: patent US9079913B2

# target: recombinant human His-tagged MDM2 protein (residues 1-118) (Homo sapiens (Human))
# Sequence (Q00987 1-118): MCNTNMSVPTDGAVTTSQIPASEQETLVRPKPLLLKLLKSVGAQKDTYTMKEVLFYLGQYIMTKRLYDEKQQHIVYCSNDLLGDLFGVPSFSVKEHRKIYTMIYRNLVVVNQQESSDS
# method_summary: Fluorescence-polarization MDM2 binding assay;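 note: fluorescence polarization read after three hours of incubation in potassium phosphate buffer containing bovine gamma globulin and Triton X-100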
# setup_conditions: Table 19D; read-out: MDM2 Binding Affinities IC50
pIC50: −log10 of the molar value.
Readings of pIC50 for the listed molecules

# molecule, pIC50
measured = [
    ("CC(C)(C)C[C@H]1N[C@@H](C(=O)NC2CCN(CCC(F)(F)F)CC2)[C@H](c2cccc(Cl)c2F)[C@@]12C(=O)Nc1cc(Cl)ccc12 [MI-519-57-1]", "> 6.00"),
    ("CN1[C@@H](C(=O)NCC[C@H](O)CO)[C@H](c2cccc(Cl)c2)[C@@]2(C(=O)Nc3cc(F)ccc32)[C@H]1CC(C)(C)C [MI-519-15-me]", "> 5.30"),
    ("CN1CCC(NC(=O)[C@@H]2N[C@H](CC(C)(C)C)[C@]3(C(=O)Nc4cc(Cl)ccc43)[C@H]2c2cccc(Cl)c2F)CC1 [MI-519-52]", "> 6.00"),
]

* * *

# Tested on: cancer cell lines with wild-type p53 / mutated or deleted p53 (ATCC)
# method_summary: Cell growth assay (WST-8), other cancer cell lines
# Type: cell-based
# setup_conditions: read-out: SJSA-1 (p53 wild-type) IC50

# compound, relation_operator, IC50 (nM)
records = [
    ("CC(C)(C)C[C@H]1N[C@@H](C(=O)NC2CCC(O)CC2)[C@H](c2cccc(Cl)c2F)[C@@]12C(=O)Nc1cc(F)c(F)cc12 (some centres unmarked) [MI-786]", "=", 800),
    ("CC(C)(C)C[C@H]1N[C@@H](C(=O)NC2CCC(O)CC2)[C@H](c2cccc(Cl)c2F)[C@@]12C(=O)Nc1cc(F)c(F)cc12 (some centres unmarked) [MI-7104]", "<", 3000),
]

* * *

# method_summary: In vitro microsomal stability, rat
# Format: in vitro ADME
# setup_conditions: Table 16, 15 min
Param label: returns criterion met when % of compound remaining when incubated in rat liver microsomes < 40%, returns criterion not met otherwise, including exact equality.

# compound, class_label
records = [
    ("CCN1CCN(CCNC(=O)C2NC(CC(C)(C)C)C3(C(=O)Nc4cc(Cl)ccc43)C2c2cccc(Cl)c2F)CC1 (stereo not shown)", "criterion met"),
    ("CC(C)N1CCN(CCNC(=O)[C@@H]2N[C@H](CC(C)(C)C)[C@]3(C(=O)Nc4cc(Cl)ccc43)[C@H]2c2cccc(Cl)c2F)CC1", "criterion not met"),
    ("CC(C)(C)CC1NC(C(=O)NCCN2CCCC2)C(c2cccc(Cl)c2F)C12C(=O)Nc1cc(Cl)ccc12 (stereo not shown)", "criterion not met"),
    ("CC(C)(C)CC1NC(C(=O)NCCN2CCOCC2)C(c2cccc(Cl)c2F)C12C(=O)Nc1cc(Cl)ccc12 (stereo not shown)", "criterion met"),
    ("CN1CCN(CCNC(=O)C2NC(CC(C)(C)C)C3(C(=O)Nc4cc(Cl)ccc43)C2c2cccc(Cl)c2F)CC1 (stereo not shown)", "criterion not met"),
    ("CN1CCC(CCNC(=O)C2NC(CC(C)(C)C)C3(C(=O)Nc4cc(Cl)ccc43)C2c2cccc(Cl)c2F)CC1 (stereo not shown)", "criterion not met"),
    ("CC(C)(C)C[C@H]1N[C@@H](C(=O)NCCC2CCC(O)C2)[C@H](c2cccc(Cl)c2)[C@@]12C(=O)Nc1cc(Cl)c(F)cc12 (stereo partly shown)", "criterion met"),
]
